assayed.target: Histamine H1 receptor (Homo sapiens, UniProt P35367)
Sequence (P35367 whole entry): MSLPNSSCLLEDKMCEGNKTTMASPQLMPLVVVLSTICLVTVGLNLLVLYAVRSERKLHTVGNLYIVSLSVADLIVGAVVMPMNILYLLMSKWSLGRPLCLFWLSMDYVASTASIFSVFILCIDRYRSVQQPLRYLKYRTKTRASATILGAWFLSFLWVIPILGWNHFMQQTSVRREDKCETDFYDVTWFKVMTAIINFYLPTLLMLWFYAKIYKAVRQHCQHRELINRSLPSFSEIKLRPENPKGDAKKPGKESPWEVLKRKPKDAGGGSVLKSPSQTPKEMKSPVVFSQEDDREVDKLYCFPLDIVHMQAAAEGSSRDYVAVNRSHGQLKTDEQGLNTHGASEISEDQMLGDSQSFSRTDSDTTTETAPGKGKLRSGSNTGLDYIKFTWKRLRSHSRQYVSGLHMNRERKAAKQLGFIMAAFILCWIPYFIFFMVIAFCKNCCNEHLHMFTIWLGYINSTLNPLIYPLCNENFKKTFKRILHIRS
experiment.summary: Binding affinity of human cortical histamine H1 receptor
pKi: −log10 of the molar value.
1 means recorded pKi is 6 or above; 0 means it is below 6.

Reference set (5 entries):
molecule | assayed.target | answer.label
CCOC(=O)N1CCN(CCCOc2ccc(-c3ccc(C#N)cc3C)cc2)CC1 | Histamine H1 receptor (Homo sapiens, UniProt P35367) | 1
CCOC(=O)N1CCN(CCCOc2ccc(-c3cccs3)cc2)CC1 | Histamine H1 receptor (Homo sapiens, UniProt P35367) | 1
N#Cc1ccc(-c2ccc(OCCCN3CCCNCC3)cc2)cc1 | Histamine H1 receptor (Homo sapiens, UniProt P35367) | 0
CCOC(=O)N1CCN(CCCOc2ccc(-c3ccc(C#N)cc3)cc2)CC1 | Histamine H1 receptor (Homo sapiens, UniProt P35367) | 1
CCOC(=O)N1CCN(CCCOc2ccc(-c3ccc(OC)cc3)cc2)CC1 | Histamine H1 receptor (Homo sapiens, UniProt P35367) | 1

Input line: Item N#Cc1ccc(-c2ccc(OCCCN3CCCC(O)C3)cc2)cc1 (configuration not stated) with pKi of 6 or above?
Output line: 0

Input line: Lookup C[C@@H]1CC[C@@H](C)N1CCCOc1ccc(-c2ccc(C#N)cc2)cc1
Output line: 1

Input line: Repeat for the following molecule: N#Cc1ccc(-c2ccc(OCCCN3CCOCC3)cc2)cc1
Output line: 0

Input line: Now give it for CN(C)[C@@H]1CCN(CCCOc2ccc(-c3ccc(C#N)cc3)cc2)C1 too.
Output line: 0

Input line: And for CC1CCCCN1CCCOc1ccc(-c2ccc(C#N)cc2)cc1 (configuration not stated) ?
Output line: 0

Input line: Same for CC1CCCC(C)N1CCCOc1ccc(-c2ccc(C#N)cc2)cc1 (configuration not stated)
Output line: 0

Input line: Now the same for N#Cc1ccc(-c2ccc(OCCCN3CCNCC3)cc2)cc1
Output line: 0

Input line: What about C[C@@]1(O)CCN(CCCOc2ccc(-c3ccc(C#N)cc3)cc2)C1 ?
Output line: 0

Input line: Repeat for the following molecule: CCOC(=O)N1CCN(CCCOc2ccc(-c3cc[nH]c3)cc2)CC1
Output line: 1

Input line: # iterate: N#Cc1ccc(-c2ccc(OCCCN3CC4CNCC4C3)cc2)cc1 (configuration not stated)
Output line: 0

Input line: Let us now turn to CC1CCCN(CCCOc2ccc(-c3ccc(C#N)cc3)cc2)C1 (configuration not stated)
Output line: 1
